Some compounds, each annotated with its measured TGI.
Tested on: MALME-3M melanoma
ASSAY_EXPLANATION: NCI tumour cell line growth inhibition, 48 h

> print(dat)
                                   compound        target.desc  quantity.kind     result
1  Nc1nc(I)nc2c1ncn2C1OC(COS(N)(=O)=O)C(O)C1O (stereo unspecified)  MALME-3M melanoma            TGI  < 0.01 µM
2                 CO/C(N)=C(\C#N)N=Cc1ccco1  MALME-3M melanoma            TGI   > 100 µM
3  O=C1NC(=O)C(CCC(=O)c2ccc3ccccc3c2)C(=O)N1  MALME-3M melanoma            TGI   > 100 µM
4  CCC[CH2][Sn]1([CH2]CCC)[O]C(=O)CN=Cc2c(ccc3ccccc23)[O]1  MALME-3M melanoma            TGI   0.464 µM
5           CCOC(=O)N(NC(=O)NC(C)C)c1ccccc1  MALME-3M melanoma            TGI   > 100 µM
6  CCOC(=O)C1(Cc2ccccc2)C=CN(C(=O)c2ccccc2)C=C1  MALME-3M melanoma            TGI    88.9 µM
7           CCN(CC)CCn1nc(N)c2nc3ccccc3nc21  MALME-3M melanoma            TGI   > 100 µM
8  O=C(CC1(O)C(=O)Nc2c(Cl)ccc(Cl)c21)c1ccc(F)cc1 (stereo unspecified)  MALME-3M melanoma            TGI   > 100 µM

Input line: Quick one: TGI of O=[N+]([O-])c1ccc2c(c1)S(=O)(=O)N1Cc3ccccc3CCN21 ?
Output line: > 100 µM

Input line: Quick one: TGI of COc1cc(C(=O)CBr)c(OC)cc1C ?
Output line: > 100 µM

Input line: Quick one: TGI of Cc1cc(S(=O)(=O)Nc2nc(N)n(-c3ccccn3)n2)c(S)cc1Cl ?
Output line: > 100 µM
